The entries below come with measured Papp A→B values attached.
Assay: in vitro
Conditions: human, Caco-2

Smiles notation: C[C@H]1CN(C)CCN1c1cc(NC(=O)Cn2cc(-c3cc(F)c(O)c(C(N)=O)c3)c3c(=O)n(C)cnc32)c(Cl)cn1
Papp A→B / ×10⁻⁶ cm/s: 0.5
--
Smiles notation: C[C@@H]1COCCN1c1cc(NC(=O)Cn2cc(-c3cc(Cl)c(O)c(C(N)=O)c3)c3c(=O)n(C)cnc32)c(Cl)cn1
Papp A→B / ×10⁻⁶ cm/s: 3
--
Smiles notation: C[C@H]1COCCN1c1cc(NC(=O)Cn2cc(-c3cc(Cl)c(O)c(C(N)=O)c3)c3c(=O)n(C)cnc32)c(Cl)cn1
Papp A→B / ×10⁻⁶ cm/s: 3.6
--
Smiles notation: C[C@H]1CN(C)CCN1c1cc(NC(=O)Cn2cc(-c3cc(F)c(O)c(C(N)=O)c3F)c3c(=O)n(C)cnc32)c(Cl)c(F)n1
Papp A→B / ×10⁻⁶ cm/s: 2.8
--
Smiles notation: Cc1nc2c(c(-c3cc(C(N)=O)c(O)c(F)c3F)cn2CC(=O)Nc2cc(N3CCN(C)C[C@@H]3C)ncc2Cl)c(=O)n1C
Papp A→B / ×10⁻⁶ cm/s: 4.4

---

Assay: in vitro
Conditions: human, liver microsomes

Smiles notation: C[C@H]1CN(C)CCN1c1cc(NC(=O)Cn2cc(-c3cc(F)c(O)c(C(N)=O)c3)c3c(=O)n(C)cnc32)c(Cl)cn1
remaining at 1 h (%): 62

Smiles notation: C[C@H]1COCCN1c1cc(NC(=O)Cn2cc(-c3cc(Cl)c(O)c(C(N)=O)c3)c3c(=O)n(C)cnc32)c(Cl)cn1
remaining at 1 h (%): 27

Smiles notation: C[C@@H]1COCCN1c1cc(NC(=O)Cn2cc(-c3cc(Cl)c(O)c(C(N)=O)c3)c3c(=O)n(C)cnc32)c(Cl)cn1
remaining at 1 h (%): 55

Smiles notation: Cc1nc2c(c(-c3cc(C(N)=O)c(O)c(F)c3F)cn2CC(=O)Nc2cc(N3CCN(C)C[C@@H]3C)ncc2Cl)c(=O)n1C
remaining at 1 h (%): 73

Smiles notation: C[C@H]1CN(C)CCN1c1cc(NC(=O)Cn2cc(-c3cc(F)c(O)c(C(N)=O)c3F)c3c(=O)n(C)cnc32)c(Cl)c(F)n1
remaining at 1 h (%): 16

---

Assay: in vitro
Details: mouse, liver microsomes
Threshold-based label: remaining at 1 h under 40% gives class 1, remaining at 1 h not under 40% gives class 0.

Smiles notation: C[C@H]1COCCN1c1cc(NC(=O)Cn2cc(-c3cc(Cl)c(O)c(C(N)=O)c3)c3c(=O)n(C)cnc32)c(Cl)cn1
Label: class 0

Smiles notation: C[C@@H]1COCCN1c1cc(NC(=O)Cn2cc(-c3cc(Cl)c(O)c(C(N)=O)c3)c3c(=O)n(C)cnc32)c(Cl)cn1
Label: class 1

Smiles notation: Cc1nc2c(c(-c3cc(C(N)=O)c(O)c(F)c3F)cn2CC(=O)Nc2cc(N3CCN(C)C[C@@H]3C)ncc2Cl)c(=O)n1C
Label: class 0

Smiles notation: C[C@H]1CN(C)CCN1c1cc(NC(=O)Cn2cc(-c3cc(F)c(O)c(C(N)=O)c3)c3c(=O)n(C)cnc32)c(Cl)cn1
Label: class 0

Smiles notation: C[C@H]1CN(C)CCN1c1cc(NC(=O)Cn2cc(-c3cc(F)c(O)c(C(N)=O)c3F)c3c(=O)n(C)cnc32)c(Cl)c(F)n1
Label: class 0
